experiment: E. coli acrAB mutant growth effects, primary screen, E. coli filamentation inducers, strain DRC39, OD650, 24 h (AID 1178); conditions: higher = more signal, called active from +8 up or from −8 down;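 note: growth measured as culture turbidity by optical density at 650 nm; test concentration not given here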
z-score of -0.7 or higher: class 1. Under -0.7: class 0.

compound	answer.label
CN(C)CCCNC(=O)[C@@]1(Cc2ccccc2I)c2ccccc2C(=O)N(Cc2ccccc2)[C@H]1c1ccc(CO)cc1	class 1
O=C1OCCC=C[C@H]2OC34C=CCN(c5ccc(Cl)cc5)C(=O)[C@H]3N(CCO)C(=O)[C@@H]4C12 (stereo partly specified)	class 0
COC(=O)[C@@]1(Cc2ccc(OC)cc2)[C@H]2c3cc(C(=O)N(C)C)n(Cc4ccsc4Br)c3C[C@H]2CN1C(=O)c1ccccc1	class 1
CC(C)CNC(=O)[C@@H]1c2ccccc2C(=O)N(Cc2ccccc2)[C@H]1c1ccc(CO)cc1	class 1
COCCOC(=O)N1C(=O)[C@@]2(c3cc(C#CC4(O)CCCCCC4)ccc31)[C@H](c1ccc(OCCO)cc1)N1[C@H](c3ccccc3)[C@H](c3ccccc3)OC(=O)[C@H]1[C@@H]2C(N)=O	class 1
C=CCNC(=O)[C@@H]1[C@H]2C(=O)O[C@H](c3ccccc3)[C@H](c3ccccc3)N2[C@H](c2ccc(O)cc2)[C@@]12C(=O)Nc1ccc(C#CC3(O)CCCCCC3)cc12	class 1

These entries and their values trace back to PubChem BioAssay.
